Just for reference, patent US8664203B2 is where these values come from.

Biological target: human P2Y12 receptor (Homo sapiens)
Test: P2Y12 receptor binding assay
Details: CHO cells with recombinant expression of the human P2Y12 receptor; tritium-labeled 2-methyl-S-ADP; RT, 2 hours
readoutKind: IC50 (nM)
Your answer should be a plain number; it is taken to be in nM.

{"compoundSmiles": "CCCCOC(=O)N1CCN(C(=O)[C@H](Cc2ccc(P(=O)(OCC)OCC)cc2)NC(=O)c2csc(-c3ccccc3)n2)CC1", "reportedValue": 635}
{"compoundSmiles": "CCCCOC(=O)N1CCN(C(=O)CNC(=O)c2nc(-c3ccccc3)sc2NCCC(=O)OCC)CC1", "reportedValue": 134}
{"compoundSmiles": "CCCCOC(=O)N1CCN(C(=O)[C@H](CCC(=O)O)NC(=O)c2nc(-c3ccccc3)sc2-c2ccccc2)CC1", "reportedValue": 43}

// switching to the query molecule
Q: For human P2Y12 receptor (Homo sapiens), give IC50 of the listed molecule: CCCCOC(=O)N1CCN(C(=O)[C@H](CCC(=O)O)NC(=O)c2csc(-c3ccccc3Oc3ccccc3)n2)CC1
A: 1470

###

Molecular target: human P2Y12 receptor (Homo sapiens, UniProt Q9H244)
Sequence (Q9H244 whole entry): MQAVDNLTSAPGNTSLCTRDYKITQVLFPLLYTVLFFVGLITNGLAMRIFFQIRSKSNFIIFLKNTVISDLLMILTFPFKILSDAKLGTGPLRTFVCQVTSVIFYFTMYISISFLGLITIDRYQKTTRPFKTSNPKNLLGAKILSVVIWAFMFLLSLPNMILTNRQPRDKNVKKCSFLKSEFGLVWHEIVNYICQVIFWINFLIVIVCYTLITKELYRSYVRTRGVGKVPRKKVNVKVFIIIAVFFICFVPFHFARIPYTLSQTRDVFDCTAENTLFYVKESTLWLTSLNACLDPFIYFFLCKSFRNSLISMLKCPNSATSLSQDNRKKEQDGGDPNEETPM
Assay: P2Y12 receptor binding assay
Details: CHO cells with recombinant expression of the human P2Y12 receptor; tritium-labeled 2-methyl-S-ADP; RT, 2 hours
pIC50: −log10 of the molar value.
Parameter threshold = 6. Response is Met when pIC50 meets or exceeds it, else Not met.

{"compoundSmiles": "CCOC(=O)N1CCN(C(=O)CNC(=O)c2csc(-c3ccccc3)n2)CC1", "assignedClass": "Not met"}
{"compoundSmiles": "CCCCOC(=O)N1CCN(C(=O)[C@H](Cc2ccc(P(=O)(O)O)cc2)NC(=O)c2csc(-c3ccccc3)n2)CC1", "assignedClass": "Met"}
{"compoundSmiles": "CCCCOC(=O)N1CCN(C(=O)CNC(=O)c2nc(-c3ccccc3)sc2NCCCOC)CC1", "assignedClass": "Met"}
{"compoundSmiles": "CCOC(=O)N1CCN(C(=O)[C@H](Cc2ccc(P(=O)(O)O)cc2)NC(=O)c2csc(-c3ccccc3)n2)CC1", "assignedClass": "Met"}
{"compoundSmiles": "CCCCOC(=O)N1CCN(C(=O)[C@H](CCC(=O)O)NC(=O)c2nc(-c3ccccc3)sc2[C@H]2C[C@@H]2COC)CC1", "assignedClass": "Met"}

Q: Reported pIC50 at or above 6? CCOC(=O)N1CCN(C(=O)[C@H](Cc2ccc(P(=O)(OCC)OCC)cc2)NC(=O)c2csc(-c3ccccc3)n2)CC1
A: Not met

Q: Reported pIC50 at or above 6? CCCCOC(=O)N1CCN(C(=O)CNC(=O)c2nc(-c3ccccc3)c(CCC(=O)O)s2)CC1
A: Met

###

Target: human P2Y12 receptor (Homo sapiens)
Assay: P2Y12 receptor binding assay
Conditions: CHO cells with recombinant expression of the human P2Y12 receptor; tritium-labeled 2-methyl-S-ADP; RT, 2 hours
pIC50: −log10 of the molar value. Structures can show the parent of a compound that is named as a salt.
Parameter threshold = 7. Response is Satisfied when pIC50 meets or exceeds it, else Not satisfied.

Past entries and their recorded results:
{"molecule": "CCCCOC(=O)N1CCN(C(=O)CNC(=O)c2nc(-c3ccccc3)sc2-c2cccc(F)c2)CC1 [Example 29]", "assignedClass": "Not satisfied"}
{"molecule": "CCCCOC(=O)N1CCN(C(=O)[C@H](CCC(=O)O)NC(=O)c2nc(-c3ccccc3)sc2Cl)CC1 [Example 16]", "assignedClass": "Satisfied"}
{"molecule": "CCCCOC(=O)N1CCN(C(=O)CNC(=O)c2nc(-c3ccccc3)c(/C=C/COC)s2)CC1 [Example 51]", "assignedClass": "Not satisfied"}
{"molecule": "CCCCOC(=O)N1CCN(C(=O)[C@H](CCC(=O)O)NC(=O)c2csc(-c3ccccc3)n2)CC1 [Example 7]", "assignedClass": "Satisfied"}
{"molecule": "CCCCOC(=O)N1CCN(C(=O)[C@H](CCC(=O)O)NC(=O)c2nc(-c3ccccc3)sc2N2CCOCC2)CC1 [Example 23]", "assignedClass": "Satisfied"}

Q: Reported pIC50 at or above 7? CCCCOC(=O)N1CCN(C(=O)[C@H](CP(=O)(O)O)NC(=O)c2nc(-c3ccccc3)sc2N2CCN(C)CC2)CC1 [Example 45, hydrochloride]
A: Satisfied

###

Target: UniProt Q9H244
Assay: P2Y12 receptor binding assay
Conditions: CHO cells with recombinant expression of the human P2Y12 receptor; tritium-labeled 2-methyl-S-ADP; RT, 2 hours
pIC50: −log10 of the molar value.
Parameter threshold = 7. Response is Yes when pIC50 meets or exceeds it, else No.

Past entries and their recorded results:
{"compoundSmiles": "CCCCOC(=O)N1CCN(C(=O)[C@H](CP(=O)(OCOC(=O)OCC)OCOC(=O)OCC)NC(=O)c2csc(-c3ccccc3)n2)CC1", "systemTested": "UniProt Q9H244", "assignedClass": "Yes"}
{"compoundSmiles": "CCCCOC(=O)N1CCN(C(=O)[C@H](CP(=O)(OCC)OCC)NC(=O)c2nc(-c3ccccc3)sc2-c2ccccc2)CC1", "systemTested": "UniProt Q9H244", "assignedClass": "No"}
{"compoundSmiles": "CCCCOC(=O)N1CCN(C(=O)CNC(=O)c2nc(-c3ccccc3)sc2/C=C/C(=O)O)CC1", "systemTested": "UniProt Q9H244", "assignedClass": "Yes"}

Q: Reported pIC50 at or above 7? CCCCOC(=O)N1CCN(C(=O)[C@H](CP(=O)(O)O)NC(=O)c2nc(-c3ccccc3)c(Br)s2)CC1
A: Yes

Q: Reported pIC50 at or above 7? CCCCOC(=O)N1CCN(C(=O)[C@H](CP(=O)(OCOC(C)=O)OCOC(C)=O)NC(=O)c2csc(-c3ccccc3)n2)CC1
A: Yes

###

Biological target: human P2Y12 receptor (Homo sapiens, UniProt Q9H244)
Assay: P2Y12 receptor binding assay
Conditions: CHO cells with recombinant expression of the human P2Y12 receptor; tritium-labeled 2-methyl-S-ADP; RT, 2 hours
hey, just use Satisfied if measured IC50 is less than 0.04 µM, otherwise Not satisfied

{"molecule": "CCCCOC(=O)N1CCN(C(=O)CNC(=O)c2nc(-c3ccccc3)c(/C=C/C(=O)OCC)s2)CC1 [Example 53]", "assignedClass": "Not satisfied"}
{"molecule": "CCCCOC(=O)N1CCN(C(=O)[C@H](CO)NC(=O)c2nc(-c3ccccc3)sc2CCC(=O)O)CC1 [Example 40]", "assignedClass": "Not satisfied"}
{"molecule": "CCCCOC(=O)N1CCN(C(=O)CNC(=O)c2nc(-c3ccccc3)sc2CCC(=O)O)CC1 [Example 33]", "assignedClass": "Satisfied"}
{"molecule": "CCCCOC(=O)N1CCN(C(=O)[C@H](CP(=O)(O)O)NC(=O)c2csc(-c3ccc(F)cc3)n2)CC1 [Example 41]", "assignedClass": "Satisfied"}
{"molecule": "CCCCOC(=O)N1CCN(C(=O)CNC(=O)c2nc(-c3ccccc3)sc2CCC(=O)OCC)CC1 [Example 32]", "assignedClass": "Not satisfied"}

Q: # strict comparison: is reported IC50 < 0.04 µM? input = CCCCOC(=O)N1CCN(C(=O)[C@H](CCC(=O)O)NC(=O)c2csc(-c3ccccc3C)n2)CC1 [Example 6]
A: Not satisfied

Q: # strict comparison: is reported IC50 < 0.04 µM? input = CCCCOC(=O)N1CCN(C(=O)[C@H](CCC(=O)O)NC(=O)c2nc(-c3ccccc3)c(Br)s2)CC1 [Example 56]
A: Not satisfied

###

Molecular target: human P2Y12 receptor (Homo sapiens, UniProt Q9H244)
Assay: P2Y12 receptor binding assay
Conditions: CHO cells with recombinant expression of the human P2Y12 receptor; tritium-labeled 2-methyl-S-ADP; RT, 2 hours
readoutKind: pIC50
Quick note: pIC50 means taking -log10 of the concentration in moles per liter.

The following compounds have reported results that may help.
{"compoundSmiles": "CCCCOC(=O)N1CCN(C(=O)[C@H](CCC(=O)O)NC(=O)c2nc(-c3ccccc3)sc2CCCOC)CC1", "systemTested": "human P2Y12 receptor (Homo sapiens, UniProt Q9H244)", "pIC50": 7.55}
{"compoundSmiles": "CCCCOC(=O)N1CCN(C(=O)[C@H](CCC(=O)O)NC(=O)c2nc(-c3ccccc3)sc2CCC(=O)O)CC1", "systemTested": "human P2Y12 receptor (Homo sapiens, UniProt Q9H244)", "pIC50": 7.89}
{"compoundSmiles": "CCCCOC(=O)N1CCN(C(=O)CNC(=O)c2nc(-c3ccccc3)sc2/C=C/C(=O)OCC)CC1", "systemTested": "human P2Y12 receptor (Homo sapiens, UniProt Q9H244)", "pIC50": 6.57}

// switching to the query compound
Q: Give a short answer stating reported pIC50 for CCOC(=O)N1CCN(C(=O)[C@H](CCC(=O)O)NC(=O)c2csc(-c3ccccc3)n2)CC1 .
A: 6.61
